biological target: human sodium-glucose cotransporter 2 (SGLT2) (Homo sapiens, UniProt P31639); construct: expressed in transfected cells; host or cells: NIH3T3 (mouse fibroblast) cells expressing hSGLT2; test: In vitro SGLT2 inhibition, methyl-α-D-[U-14C]glucopyranoside uptake in NIH3T3-hSGLT2 cells; format: cell-based; details: SGLT2, 10 nM; read-out: % Inhibition rate ± SD 10 nM
Sequence (P31639 whole entry): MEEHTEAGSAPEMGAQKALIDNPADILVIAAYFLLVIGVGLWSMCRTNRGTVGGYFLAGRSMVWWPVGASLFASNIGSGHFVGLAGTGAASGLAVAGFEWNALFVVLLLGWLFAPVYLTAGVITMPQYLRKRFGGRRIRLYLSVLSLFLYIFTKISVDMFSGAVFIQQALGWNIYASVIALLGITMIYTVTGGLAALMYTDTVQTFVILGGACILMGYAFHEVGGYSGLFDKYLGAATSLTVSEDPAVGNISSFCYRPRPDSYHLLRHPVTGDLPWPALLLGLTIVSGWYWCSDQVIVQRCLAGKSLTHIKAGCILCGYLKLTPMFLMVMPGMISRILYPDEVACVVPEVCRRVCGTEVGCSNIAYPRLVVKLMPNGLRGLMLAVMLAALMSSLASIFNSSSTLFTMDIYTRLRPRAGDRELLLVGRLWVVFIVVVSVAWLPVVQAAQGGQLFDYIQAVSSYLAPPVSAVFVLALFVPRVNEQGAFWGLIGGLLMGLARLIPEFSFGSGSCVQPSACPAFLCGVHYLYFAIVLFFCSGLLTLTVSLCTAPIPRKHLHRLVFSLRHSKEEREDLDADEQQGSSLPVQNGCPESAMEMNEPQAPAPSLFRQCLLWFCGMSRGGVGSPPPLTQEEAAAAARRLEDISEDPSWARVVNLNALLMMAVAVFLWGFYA
Returns the class for an entry based on its inhibition at 0.01 µM. Class ranges: b0: < 30%; b1: ≥ 30% and < 60%; b2: ≥ 60%

| molecule | category |
| --- | --- |
| COCCc1ccc(Cc2cc3c(cc2Cl)CO[C@]32O[C@H](C)[C@@H](O)[C@H](O)[C@H]2O)s1 [Example A114] | b0 |
| CCOc1ccc(Cc2ccc3c(c2)[C@]2(OC3)O[C@H](C)[C@@H](O)[C@H](O)[C@H]2O)cc1 [Example A6] | b0 |
| Cc1ccc(Cc2ccc3c(c2)[C@]2(OC3)O[C@H](C)[C@@H](O)[C@H](O)[C@H]2O)s1 [Example A7] | b0 |
| CCc1ccc(C(O)c2cc3c(cc2Cl)CO[C@]32O[C@H](C)[C@@H](O)[C@H](O)[C@H]2O)s1 (stereo partly drawn) [Example A120] | b0 |
| COc1ccc(Cc2cc3c(cc2Cl)CO[C@]32O[C@H](C)[C@@H](O)[C@H](O)[C@H]2O)cc1 [Example A25] | b2 |
| C[C@H]1O[C@]2(OCc3cc(Cl)c(Cc4ccc(CCO)s4)cc32)[C@H](O)[C@@H](O)[C@@H]1O [Example A119] | b0 |
| C[C@H]1O[C@]2(OCc3cc(Cl)c(C(=O)c4ccc(C(F)(F)F)cc4)cc32)[C@H](O)[C@@H](O)[C@@H]1O [Example A111] | b1 |
| CCc1ccc(Cc2ccc3c(c2)[C@]2(OC3)O[C@H](C)[C@@H](O)[C@H](O)[C@H]2O)cc1 [Example A2] | b1 |
| C[C@H]1O[C@]2(OCc3cc(Cl)c(Cc4ccc(C5(C#N)CC5)cc4)cc32)[C@H](O)[C@@H](O)[C@@H]1O [Example A108] | b2 |
| C[C@H]1O[C@]2(OCc3ccc(Cc4ccc(-c5ccccn5)s4)cc32)[C@H](O)[C@@H](O)[C@@H]1O [Example A13] | b1 |
| CCOCCc1ccc(Cc2cc3c(cc2Cl)CO[C@]32O[C@H](C)[C@@H](O)[C@H](O)[C@H]2O)s1 [Example A115] | b2 |
| C[C@H]1O[C@]2(OCc3cc(F)c(Cc4cc5ccccc5s4)cc32)[C@H](O)[C@@H](O)[C@@H]1O [Example A47] | b0 |
| CCc1ccc(Cc2cc3c(cc2Cl)CO[C@]32O[C@H](C)[C@@H](O)[C@H](O)[C@H]2O)s1 [Example A28] | b2 |
| C[C@H]1O[C@]2(OCc3cc(Cl)c(Cc4cc5ccccc5s4)cc32)[C@H](O)[C@@H](O)[C@@H]1O [Example A35] | b0 |
| CCc1ccc(Cc2cc3c(cc2F)CO[C@]32O[C@H](C)[C@@H](O)[C@H](O)[C@H]2O)s1 [Example A42] | b2 |
| C[C@H]1O[C@]2(OCc3ccc(Cc4ccc(Cl)s4)cc32)[C@H](O)[C@@H](O)[C@@H]1O [Example A10] | b0 |
| C[C@H]1O[C@]2(OCc3cc(Cl)c(Cc4ccc(-c5ccc(F)cc5)s4)cc32)[C@H](O)[C@@H](O)[C@@H]1O [Example A31] | b2 |
| C[C@H]1O[C@]2(OCc3ccc(Cc4ccc(-c5ccccc5)s4)cc32)[C@H](O)[C@@H](O)[C@@H]1O [Example A12] | b0 |
| CC(C)c1ccc(Cc2ccc3c(c2)[C@]2(OC3)O[C@H](C)[C@@H](O)[C@H](O)[C@H]2O)cc1 [Example A4] | b1 |
| C[C@H]1O[C@]2(OCc3cc(Cl)c(Cc4ccc(C5(C#N)CC5)s4)cc32)[C@H](O)[C@@H](O)[C@@H]1O [Example A109] | b2 |
